Below, each of the compounds is paired with its reported log10 IC50 value.
- Test system: EA.hy 926
- EXPERIMENT: Antiproliferative activity against human EAhy926 cells after 48 hrs by MTT assay
- Type: functional, cell-based
- TEST_PARAMETERS: EA.hy 926, 48 h
// stored as log10 of IC50 expressed in µM

[in] Report measured log10 IC50; entry is c1ccc(Cn2c3ccccc3c3cc(CNCCCCCCNCc4cc5c6ccccc6n(Cc6ccccc6)c5c(-c5ccccc5)n4)nc(-c4ccccc4)c32)cc1
[out] 0.91

[in] Report measured log10 IC50; entry is Cc1nc(CNCCCNCc2cc3c4ccccc4n(Cc4ccccc4)c3c(C)n2)cc2c3ccccc3n(Cc3ccccc3)c12
[out] 1.18

[in] Report measured log10 IC50; entry is Cc1nc(CNCCCCNCc2cc3c4ccccc4n(Cc4ccccc4)c3c(C)n2)cc2c3ccccc3n(Cc3ccccc3)c12
[out] 0.50

[in] Report measured log10 IC50; entry is COc1ccc(-c2nc(CNCCCCCCNCc3cc4c5ccccc5n(Cc5ccccc5)c4c(-c4ccc(OC)cc4)n3)cc3c4ccccc4n(Cc4ccccc4)c23)cc1
[out] 0.64

[in] Report measured log10 IC50; entry is Cc1nc(CNCCCCNCc2cc3c4ccccc4n(C)c3c(C)n2)cc2c3ccccc3n(C)c12
[out] 0.44

Next:
[in] Report measured log10 IC50; entry is CC(C)c1nc(CNCCCCCCNCc2cc3c4ccccc4n(Cc4ccccc4)c3c(C(C)C)n2)cc2c3ccccc3n(Cc3ccccc3)c12
[out] 0.31

[in] Report measured log10 IC50; entry is Cc1nc(CNCCCCNCc2cc3c4ccccc4n(C(C)C)c3c(C)n2)cc2c3ccccc3n(C(C)C)c12
[out] 0.11

[in] Report measured log10 IC50; entry is COc1ccc(/C=C\c2cc(OC)c(OC)c(OC)c2)cc1OP(=O)(O)O [FOSBRETABULIN]
[out] 0.81

[in] Report measured log10 IC50; entry is CCCCn1c2ccccc2c2cc(CNCCCCNCc3cc4c5ccccc5n(CCCC)c4c(-c4ccc(Cl)cc4)n3)nc(-c3ccc(Cl)cc3)c21
[out] 0.69

[in] Report measured log10 IC50; entry is Cc1nc(CNCCCNCc2cc3c4ccccc4n(CC(C)C)c3c(C)n2)cc2c3ccccc3n(CC(C)C)c12
[out] 1.07

[in] Report measured log10 IC50; entry is Cn1c2ccccc2c2cc(CNCCCCCCNCc3cc4c5ccccc5n(C)c4c(-c4ccccc4)n3)nc(-c3ccccc3)c21
[out] 0.21
